Listed here are compounds together with their documented DC50.
molecular target: RET (658-1114) (Homo sapiens); construct: 658-1114; expressed in transfected cells; host or cells: 293T.144 (293T cells, generated in-house); assay: HiBiT-Degradation, RET wild-type degradation assay (Nano-Glo HiBiT Lytic), 293T.144 cells; type: cell-based; conditions: 6.0 hours, half-maximal degradation concentration, read-out: 293T.144 RET (658-1114) 6.0 hours (DC50)
Sequence (P07949 658-1114): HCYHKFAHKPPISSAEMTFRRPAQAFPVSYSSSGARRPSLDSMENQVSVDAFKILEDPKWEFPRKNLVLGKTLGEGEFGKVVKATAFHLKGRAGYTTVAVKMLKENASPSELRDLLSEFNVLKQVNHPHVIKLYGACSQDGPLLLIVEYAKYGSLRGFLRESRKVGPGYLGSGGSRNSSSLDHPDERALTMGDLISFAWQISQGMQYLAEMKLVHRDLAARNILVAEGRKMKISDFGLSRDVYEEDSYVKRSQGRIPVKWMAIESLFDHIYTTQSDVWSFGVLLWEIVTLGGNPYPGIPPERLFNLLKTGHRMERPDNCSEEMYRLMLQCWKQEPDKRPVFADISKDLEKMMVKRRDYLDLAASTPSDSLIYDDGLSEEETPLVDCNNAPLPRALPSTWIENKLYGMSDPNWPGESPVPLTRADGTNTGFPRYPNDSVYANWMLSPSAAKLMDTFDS
measurement-name: DC50

compound	obs-value
COc1ccc(CC2(OC)CCN(c3ccc(-c4nc(-c5cnn([C@H]6CC[C@@H](N7CCN(c8ccc(NC9CCC(=O)NC9=O)cc8F)CC7)CC6)c5)cn5ncc(C#N)c45)cn3)CC2)cn1 (single isomer, unassigned)	< 50 nM
CCC1(c2ncccn2)CCN(c2ccc(-c3nc(-c4cnn([C@H]5CC[C@H](N6CCC(c7ccc(N[C@H]8CCC(=O)NC8=O)cc7F)CC6)CC5)c4)cn4ncc(C#N)c34)cn2)CC1 (single isomer, unassigned)	< 50 nM
